Target: T1, human CD22, endogenous on Raji cells (human, UniProt P20273 20-847)
T1 construct: whole, on cells; Endogenous protein of the Raji cell line
T1 sequence (looked up): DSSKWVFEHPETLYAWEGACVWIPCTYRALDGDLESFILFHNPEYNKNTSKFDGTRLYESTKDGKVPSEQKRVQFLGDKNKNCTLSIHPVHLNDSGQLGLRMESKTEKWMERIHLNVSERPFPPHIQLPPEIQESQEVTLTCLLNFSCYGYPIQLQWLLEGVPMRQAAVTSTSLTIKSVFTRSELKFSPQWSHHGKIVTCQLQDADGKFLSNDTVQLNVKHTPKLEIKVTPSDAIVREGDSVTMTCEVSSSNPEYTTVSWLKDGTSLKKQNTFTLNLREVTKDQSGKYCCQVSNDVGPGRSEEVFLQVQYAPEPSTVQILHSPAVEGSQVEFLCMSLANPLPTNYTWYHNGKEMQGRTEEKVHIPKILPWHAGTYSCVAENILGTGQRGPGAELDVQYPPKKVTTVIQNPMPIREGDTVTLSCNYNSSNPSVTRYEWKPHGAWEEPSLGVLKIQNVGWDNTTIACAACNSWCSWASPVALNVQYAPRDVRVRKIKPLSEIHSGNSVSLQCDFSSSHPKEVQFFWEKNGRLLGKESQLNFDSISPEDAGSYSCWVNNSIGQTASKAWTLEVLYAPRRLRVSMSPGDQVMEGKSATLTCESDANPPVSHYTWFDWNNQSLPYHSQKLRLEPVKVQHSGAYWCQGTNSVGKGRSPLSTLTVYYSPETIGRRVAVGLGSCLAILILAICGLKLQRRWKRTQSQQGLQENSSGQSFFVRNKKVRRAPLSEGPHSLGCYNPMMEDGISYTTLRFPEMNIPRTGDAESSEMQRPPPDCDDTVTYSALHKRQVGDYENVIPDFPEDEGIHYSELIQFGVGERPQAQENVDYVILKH
Experiment: FACS, Raji cells
Quick list: Maximum mean fluorescence intensity per entry.

As a guide, the following entries are already answered.
Binder	Maximum mean fluorescence intensity
F1.267.9 human-murine chimeric antibody (antibody, human IgG1, kappa, V domains shown, Chimeric, human IgG1 / kappa; VL tied by name) VH: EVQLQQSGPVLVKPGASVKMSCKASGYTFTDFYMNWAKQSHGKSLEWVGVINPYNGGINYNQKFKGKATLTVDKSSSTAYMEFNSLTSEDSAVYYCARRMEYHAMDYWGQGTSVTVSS VL: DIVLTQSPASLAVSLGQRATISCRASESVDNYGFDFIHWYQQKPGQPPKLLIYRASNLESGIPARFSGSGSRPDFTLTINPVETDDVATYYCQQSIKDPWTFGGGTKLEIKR	26700 MFI
F1.7.6 human-murine chimeric antibody (antibody, human IgG1, kappa, V domains shown, Chimeric, human IgG1 / kappa; VL tied by name) VH: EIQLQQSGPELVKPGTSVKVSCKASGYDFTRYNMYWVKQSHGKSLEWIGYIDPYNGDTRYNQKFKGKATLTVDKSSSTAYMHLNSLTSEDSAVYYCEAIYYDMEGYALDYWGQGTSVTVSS VL: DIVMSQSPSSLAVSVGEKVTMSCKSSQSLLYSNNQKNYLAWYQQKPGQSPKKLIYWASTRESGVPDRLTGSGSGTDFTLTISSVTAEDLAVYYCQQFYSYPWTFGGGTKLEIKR	25900 MFI

Now consider a different binder.
Q) Any idea what Maximum mean fluorescence intensity was measured for F1.172.13 human-murine chimeric antibody (antibody, human IgG1, kappa, V domains shown, Chimeric, human IgG1 / kappa) VH: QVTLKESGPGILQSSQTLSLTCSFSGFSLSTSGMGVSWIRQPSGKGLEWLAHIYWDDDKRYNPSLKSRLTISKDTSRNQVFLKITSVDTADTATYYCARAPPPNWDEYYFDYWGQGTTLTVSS VL: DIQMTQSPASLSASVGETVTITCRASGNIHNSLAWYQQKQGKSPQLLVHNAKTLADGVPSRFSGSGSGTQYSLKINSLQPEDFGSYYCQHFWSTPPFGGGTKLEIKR ?
A) 23800 MFI

Where do these numbers come from? They come from patent US20240084003A1.
